# Assay Comment: gradient 5% acetonitrile 3 min, to 50% in 2 min, to 85% in 15 min, held 3 min, 100 µL/min
# Condition Info: column: Zorbax Extend-C18 2.1 x 50 mm; eluents: water / acetonitrile, 0.1% formic acid
Recorded Metric: RP-LC retention time (s)

Compound	RP-LC retention time [s]
N#Cc1ccc(C(=O)Nc2cnn(-c3ncc(N4CCCCC4)cn3)c2)cc1	848
CCc1nc(-c2cc(S(=O)(=O)N3CCC(C(=O)NC4CCCCCC4)CC3)c(C)s2)no1	1070
CC(C)N1CCN(C(=O)c2ccc(-c3ccnc(N4CCCC4)n3)cc2)CC1	562
COc1cccc(-c2nc(C3CCN(S(=O)(=O)c4cccc(C)c4)CC3)no2)c1	1150
CCn1cc(CCNC(=O)Nc2ccc3c(c2)OCO3)c2cccnc21	672

A = COc1ccc(C2CC(=O)N(c3ccc(C)cc3C)C(=O)C2)cc1OC
B = CNC(=O)Nc1ccc(S(N)(=O)=O)cc1
I'm curious, which of these has a smaller RP-LC retention time number: A or B ? Select an item and report its label. B
(B: 604 s, A: 889 s)

P = Cc1cc(NC(=O)CSc2nc3ccccc3s2)no1
Q = CC(C)Cc1csc(-c2csc(S(=O)(=O)NCc3cc(F)cc(F)c3)c2)n1
Consider entries P and Q . Which has the numerically lower RP-LC retention time? Selection: enter the item's label. P

P = CCCNC(=O)C1CCN(c2ccc(SCC(=O)Nc3cc(C)c(Cl)cc3OC)nn2)CC1
Q = O=C1C2N=NN(Cc3nc(-c4cccc(Br)c4)no3)C2C(=O)N1c1ccc2c(c1)CCC2 (centres undefined)
// max by RP-LC retention time over [ P , Q ] Reply briefly: the label of your chosen item. Q
(Q: 1130 s, P: 766 s)

====

# Assay Comment: gradient 5% acetonitrile 3 min, to 50% in 2 min, to 85% in 15 min, held 3 min, 100 µL/min
# Condition Info: column: Zorbax Extend-C18 2.1 x 50 mm; eluents: water / acetonitrile, 0.1% formic acid
Recorded Metric: RP-LC retention time (s)

Compound	RP-LC retention time, s
c1ccc(-c2csc(NCc3ccco3)n2)cc1	912

I = O=C(NCc1ccc2c(c1)OCO2)C1CCN(C(=O)C2Sc3ccccc3NC2=O)CC1 (centres undefined)
II = Cc1c(C(=O)N2CCCC2)cnn1-c1ccc(-c2nc(C(C)(C)C)no2)cn1
Pick one, I or II : lowest reported RP-LC retention time. Refer to your chosen item by its label in the answer. I
(I: 703 s, II: 1010 s)

====

# Assay Comment: gradient 5% acetonitrile 3 min, to 50% in 2 min, to 85% in 15 min, held 3 min, 100 µL/min
# Condition Info: column: Zorbax Extend-C18 2.1 x 50 mm; eluents: water / acetonitrile, 0.1% formic acid
Recorded Metric: RP-LC retention time (s)

Molecule	Measurement Unit	RP-LC retention time
Cc1cc(C)n(-c2cc(N3CCCC(C(=O)Nc4nccs4)C3)ncn2)n1 (stereo not given)	s	749
Cc1cc(C)cc(S(=O)(=O)N2CCC3(CC2)NCCN=C3NCc2ccc(F)cc2)c1	s	753
Cc1cc(=O)n2c(-c3ccc(NC(=O)Nc4ccc(F)c(F)c4)cc3)csc2n1	s	776

a = CCOC(=O)Cc1ccc(NC(=O)NCc2c(C)nn(C)c2C)cc1
b = Cc1c(C(=O)NCC(C)C)cnn1-c1cc(-c2nc(C(C)(C)C)no2)ccn1
Between the entries labelled a and b , which has a larger RP-LC retention time value on record? Write down the label of the entry you select. b
(b: 1150 s, a: 680 s)
